Molecular target: human JAK3 catalytic kinase (JH1) domain (Homo sapiens (Human), UniProt P52333)
Sequence (P52333 822-1111): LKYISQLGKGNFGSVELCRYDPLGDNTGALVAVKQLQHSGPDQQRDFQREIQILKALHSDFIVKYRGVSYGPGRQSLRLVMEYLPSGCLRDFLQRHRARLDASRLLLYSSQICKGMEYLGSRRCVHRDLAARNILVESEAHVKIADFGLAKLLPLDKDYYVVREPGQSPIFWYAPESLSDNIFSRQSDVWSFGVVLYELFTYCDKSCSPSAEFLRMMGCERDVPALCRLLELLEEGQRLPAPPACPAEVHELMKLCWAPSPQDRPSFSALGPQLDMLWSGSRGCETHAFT
Assay: ADP-Glo Kinase Assay, recombinant JAK3 catalytic kinase (JH1) domain
Format: biochemical
Conditions: recombinant JH1 domain 0.3 nM, 4 μM ATP, JAK3-974 peptide, mean, read-out: JAK3 biochem IC50 (nM) Mean
Procedure: Compounds of the disclosure were assessed for their ability to inhibit TYK2, JAK1, JAK2, and JAK3 activity. The inhibitory properties of the compounds of the disclosure described herein can be evidenced by testing in any one of the following protocols. The kinase activity of recombinantly generated catalytic kinase (also known as JH1) domain of human JAK1, JAK2, JAK3 and TYK2 were evaluated in a plate-based assay using the ADP-Glo™ Kinase Assay platform. […]
metric.name: IC50

Would you please look over these solved cases?
1. O=C(C1CC1)N1C2CCC1CN(c1ncnn3cc(-c4cnn(C5CCOC5)c4)cc13)C2 (stereo not shown) | 2590 nM
2. O=C([C@@H]1C[C@H]1F)N1C2CCC1CN(c1ccnn3cc(C4CC4)cc13)C2 | 9080 nM
3. Cn1cc(-c2cc3c(N4CC5CCC(C4)N5S(=O)(=O)C4CC4)ncnn3c2)cn1 | 9430 nM

Would you kindly look at the next entry?
Exam item: For Cn1cc(-c2cc3c(N4CC5CCC(C4)N5C(=O)C4(F)CC4)ccnc3[nH]2)cn1 , what is its reported IC50?
Marked response: 35 nM

###

Molecular target: human TYK2 catalytic kinase (JH1) domain (Homo sapiens (Human))
Sequence (P29597 897-1176): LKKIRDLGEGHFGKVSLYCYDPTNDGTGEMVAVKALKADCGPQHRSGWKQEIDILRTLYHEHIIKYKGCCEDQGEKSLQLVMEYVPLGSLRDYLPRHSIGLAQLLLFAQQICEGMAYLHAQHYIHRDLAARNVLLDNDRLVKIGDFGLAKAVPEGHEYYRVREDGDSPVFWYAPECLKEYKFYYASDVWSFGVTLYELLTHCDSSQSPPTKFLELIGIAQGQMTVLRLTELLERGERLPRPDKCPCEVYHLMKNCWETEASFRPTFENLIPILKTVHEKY
Test: ADP-Glo Kinase Assay, recombinant TYK2 catalytic kinase (JH1) domain
Format: biochemical
Settings: recombinant JH1 domain 2 nM, 10 μM ATP, JAK3-974 peptide, mean, read-out: TYK2 biochem IC50 (nM) Mean
Procedure: Compounds of the disclosure were assessed for their ability to inhibit TYK2, JAK1, JAK2, and JAK3 activity. The inhibitory properties of the compounds of the disclosure described herein can be evidenced by testing in any one of the following protocols. The kinase activity of recombinantly generated catalytic kinase (also known as JH1) domain of human JAK1, JAK2, JAK3 and TYK2 were evaluated in a plate-based assay using the ADP-Glo™ Kinase Assay platform. […]
As shown below, each of these compounds has a reported IC50 value.
Provide only the numeric value, understood in nM.

Some compounds with known IC50 results, for comparison:
1. CC(C)n1ncc(-c2cc3c(N4CC5CCC(C4)N5C(=O)C4CC4)ncnn3c2)c1F | 94.9
2. O=C(C1CC1)N1C2CCC1CN(c1ncnn3cc(-c4cnn(C5CCOCC5)c4)cc13)C2 | 99.2
3. Cn1cc(-c2nc3c(N4CC5CCC(C4)N5S(=O)(=O)C4CC4)ccnc3[nH]2)cn1 | 20.6
4. O=C([C@@H]1C[C@H]1F)N1C2CCC1CN(c1ccnn3cc(-c4cnn(C(F)F)c4)cc13)C2 | 1
5. COc1cnc(-c2cc3c(N4CC5CCC(C4)N5C(=O)[C@@H]4C[C@H]4F)ccnn3c2)cn1 | 54.5

Exam item: IC50 for Cn1cc(-c2cc3c(N4CC5CCC(C4)N5C(=O)C4CC4)ncnn3c2)cn1 ?
Marked response: 166

Exam item: Look up IC50: O=C([C@@H]1C[C@H]1F)N1C2CCC1CN(c1ccnn3cc(-c4ccnc(F)c4)cc13)C2
Marked response: 1.2

Exam item: Please report the recorded IC50 for Cn1cc(-c2cc3c(N4CC5CCC(C4)N5C(=O)C4CCC4)ncnn3c2)cn1 .
Marked response: 365

###

Biological target: human JAK3 catalytic kinase (JH1) domain (Homo sapiens (Human))
Assay: ADP-Glo Kinase Assay, recombinant JAK3 catalytic kinase (JH1) domain
Assay type: biochemical
Details: recombinant JH1 domain 0.3 nM, 4 μM ATP, JAK3-974 peptide, mean, read-out: JAK3 biochem IC50 (nM) Mean
This section presents compounds with their documented IC50 values.
The reply should contain only the number, in nM.

Observe how each entry below is paired with its result.
1. N#Cc1cc(-c2cc3c(N4CC5CCC(C4)N5C(=O)[C@@H]4C[C@H]4F)ncnc3[nH]2)ccn1 | 3240
2. CC1(C(=O)N2C3CCC2CN(c2ncnn4cc(-c5cnn(C(F)F)c5)cc24)C3)CCC1 | 9370

Exam item: Form entry - test system: human JAK3 catalytic kinase (JH1) domain (Homo sapiens (Human)); read-out: IC50; compound: CC(C)n1cc(-c2cc3c(N4CC5CCC(C4)N5C(=O)C4CC4)ncnn3c2)cn1
Marked response: 2140

Exam item: Request: IC50, test system human JAK3 catalytic kinase (JH1) domain (Homo sapiens (Human)), entry COc1cc(-c2cc3c(N4CC5CCC(C4)N5C(=O)[C@@H]4C[C@H]4F)ccnn3c2)ncn1
Marked response: 6900

###

Molecular target: human JAK3 catalytic kinase (JH1) domain (Homo sapiens (Human))
Assay: ADP-Glo Kinase Assay, recombinant JAK3 catalytic kinase (JH1) domain
Type: biochemical
Conditions: recombinant JH1 domain 0.3 nM, 4 μM ATP, JAK3-974 peptide, mean, read-out: JAK3 biochem IC50 (nM) Mean
Counter-ions that a name gives are not always drawn.
metric.name: log10(IC50) (log10 of the value in nM)
Friendly reminder: values = log10 of IC50, unit nM.

Check out these entries, answers already filled in.
1) CNc1nccc(-c2cc3c(N4CC5CCC(C4)N5C(=O)[C@@H]4C[C@H]4F)ccnn3c2)n1 [Example 126] | 3.16
2) Cn1cc(-c2cc3c(N4CC5CCC(C4)N5C(=O)C4CC4)ncnn3c2)c(F)n1 [Example 145] | 3.81
3) O=C([C@@H]1C[C@H]1F)N1C2CCC1CN(c1ccnn3cc(-c4ncc(F)cn4)cc13)C2 [Example 108] | 3.59
4) O=C(C1C(F)(F)C12CCC2)N1C2CCC1CN(c1ncnn3cc(-c4cnn(C(F)F)c4)cc13)C2 (stereo not drawn) [Example 7] | 3.80
5) Cn1cc(-c2cc3c(N4CC5CCC(C4)N5C(=O)[C@@H]4C[C@@H]4F)ncnn3c2)cn1 [Example 80] | 3.31
6) O=C(N1C2CCC1CN(c1ncnn3cc(-c4cnn(C(F)F)c4)cc13)C2)C1(F)CC1 [Example 50] | 3.31
7) O=C(C1CC1)N1C2CCC1CN(c1c(F)cnn3cc(-c4cnn(C(F)F)c4)cc13)C2 [Example 140] | 2.87
8) CC(C)(F)C(=O)N1C2CCC1CN(c1ncnn3cc(-c4cnn(C(F)F)c4)cc13)C2 [Example 32, trifluoroacetate] | 3.48

Exam item: Requested read-out log10(IC50), target or system human JAK3 catalytic kinase (JH1) domain (Homo sapiens (Human)), entry Cn1cc(-c2cc3c(N4CC5CCC(C4)N5C(=O)[C@H]4C[C@@H]4C#N)ncnn3c2)cn1 (racemic) [Example 66]
Marked response: 3.74

Exam item: Lab note: need log10(IC50) for CC(C)C(=O)N1C2CCC1CN(c1ncnn3cc(-c4cnn(C(F)F)c4)cc13)C2 [Example 42] on human JAK3 catalytic kinase (JH1) domain (Homo sapiens (Human)), anyone have it?
Marked response: 3.98

Exam item: Hi! What's the reported log10(IC50) for Cn1cc(-c2cc3c(N4CC5CCC(C4)N5C(=O)[C@@H]4C[C@H]4F)ncnn3c2)ccc1=O [Example 165] on human JAK3 catalytic kinase (JH1) domain (Homo sapiens (Human))?
Marked response: 3.62

###

Quick reference for IC50 among some compounds
Molecular target: human JAK2 catalytic kinase (JH1) domain (Homo sapiens (Human), UniProt O60674)
Sequence (O60674 849-1124): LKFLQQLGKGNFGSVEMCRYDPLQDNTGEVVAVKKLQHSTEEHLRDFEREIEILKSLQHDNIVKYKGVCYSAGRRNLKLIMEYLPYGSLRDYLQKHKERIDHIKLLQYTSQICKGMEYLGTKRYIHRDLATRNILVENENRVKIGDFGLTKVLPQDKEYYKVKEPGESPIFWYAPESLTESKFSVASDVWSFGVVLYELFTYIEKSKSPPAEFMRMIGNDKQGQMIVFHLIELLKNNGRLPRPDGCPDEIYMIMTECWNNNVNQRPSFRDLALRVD
Assay: ADP-Glo Kinase Assay, recombinant JAK2 catalytic kinase (JH1) domain
Type: biochemical
Conditions: recombinant JH1 domain 0.2 nM, 15 μM ATP, JAK3-974 peptide, mean, read-out: JAK2 biochem IC50 (nM) Mean
Write it as a number; the unit nM goes unstated.

Please review the following examples before continuing.
1. O=C([C@@H]1C[C@H]1F)N1C2CCC1CN(c1ccnn3cc(-c4ccnc(C(F)F)c4)cc13)C2 | 27
2. O=C(C1CC1)N1C2CCC1CN(c1ccnc3[nH]c(-c4cnn(C(F)F)c4)nc13)C2 | 62
3. N#Cc1cccc(-c2cc3c(N4CC5CCC(C4)N5C(=O)C4CC4)ncnn3c2)c1 | 10000

Next up:
Exam item: Which IC50 value is on record for Cc1cc(-c2cc3c(N4CC5CCC(C4)N5C(=O)[C@@H]4C[C@H]4F)ccnn3c2)on1 ?
Marked response: 37

###

Molecular target: human JAK2 catalytic kinase (JH1) domain (Homo sapiens (Human), UniProt O60674)
Test: ADP-Glo Kinase Assay, recombinant JAK2 catalytic kinase (JH1) domain
Assay type: biochemical
Settings: recombinant JH1 domain 0.2 nM, 15 μM ATP, JAK3-974 peptide, mean, read-out: JAK2 biochem IC50 (nM) Mean
metric.name: IC50
Answers without a unit are incomplete; give the number and then its unit.

Exam item: What IC50 appears in the records for this compound with human JAK2 catalytic kinase (JH1) domain (Homo sapiens (Human), UniProt O60674)? Cn1cc(-c2cc3c(N4CC5CCC(C4)N5C(=O)CC(F)(F)F)ncnn3c2)cn1
Marked response: 9730 nM

Exam item: Reported IC50 for human JAK2 catalytic kinase (JH1) domain (Homo sapiens (Human), UniProt O60674), given O=C([C@@H]1C[C@H]1F)N1C2CCC1CN(c1ccnn3cc(-c4ncc(F)cn4)cc13)C2 ?
Marked response: 1050 nM

Exam item: // fetch human JAK2 catalytic kinase (JH1) domain (Homo sapiens (Human), UniProt O60674) IC50 for O=C([C@@H]1C[C@H]1F)N1C2CCC1CN(c1ccnn3cc(-c4cnn(C(F)(F)F)c4)cc13)C2
Marked response: 33 nM

Exam item: Return IC50 measured with human JAK2 catalytic kinase (JH1) domain (Homo sapiens (Human), UniProt O60674) given this compound: O=C(C1CCC1F)N1C2CCC1CN(c1ncnn3cc(-c4cnn(C(F)F)c4)cc13)C2 (stereo not shown)
Marked response: 5700 nM
